- measurementProtocol: Organ distribution of regorafenib in rats with or without RT
- Format: in vivo, Sprague-Dawley rats
- condition: Sprague-Dawley, rat, brain, oral, 16 mg/kg, rat, 4 h after oral administration; RT2 Gy × 1 f'x followed by regorafenib 16 mg/kg × 1 d (sequential); read-out: Concentration in brain
endpoint: concentration at 4 h (ng/g)
Numbers only, in ng/g.

Lookup result for CNC(=O)c1cc(Oc2ccc(NC(=O)Nc3ccc(Cl)c(C(F)(F)F)c3)c(F)c2)ccn1 ; measured concentration at 4 h: 80

----------
- measurementProtocol: Organ distribution of regorafenib in rats with or without RT
- Type: in vivo, Sprague-Dawley rats
- condition: male, Sprague-Dawley, rat, lung, po, 16 mg/kg, rat, 4 h after oral administration; 16 mg/kg p.o. × 3 d, no RT; read-out: Concentration in lung
endpoint: concentration at 4 h (ng/g)
One number for each entry, in ng/g.

Lookup result for CNC(=O)c1cc(Oc2ccc(NC(=O)Nc3ccc(Cl)c(C(F)(F)F)c3)c(F)c2)ccn1 ; measured concentration at 4 h: 1120
